System: V. cholerae sialidase (Vibrio cholerae serotype O1)
Construct: purchased Roche
Sequence (P0C6E9 25-781): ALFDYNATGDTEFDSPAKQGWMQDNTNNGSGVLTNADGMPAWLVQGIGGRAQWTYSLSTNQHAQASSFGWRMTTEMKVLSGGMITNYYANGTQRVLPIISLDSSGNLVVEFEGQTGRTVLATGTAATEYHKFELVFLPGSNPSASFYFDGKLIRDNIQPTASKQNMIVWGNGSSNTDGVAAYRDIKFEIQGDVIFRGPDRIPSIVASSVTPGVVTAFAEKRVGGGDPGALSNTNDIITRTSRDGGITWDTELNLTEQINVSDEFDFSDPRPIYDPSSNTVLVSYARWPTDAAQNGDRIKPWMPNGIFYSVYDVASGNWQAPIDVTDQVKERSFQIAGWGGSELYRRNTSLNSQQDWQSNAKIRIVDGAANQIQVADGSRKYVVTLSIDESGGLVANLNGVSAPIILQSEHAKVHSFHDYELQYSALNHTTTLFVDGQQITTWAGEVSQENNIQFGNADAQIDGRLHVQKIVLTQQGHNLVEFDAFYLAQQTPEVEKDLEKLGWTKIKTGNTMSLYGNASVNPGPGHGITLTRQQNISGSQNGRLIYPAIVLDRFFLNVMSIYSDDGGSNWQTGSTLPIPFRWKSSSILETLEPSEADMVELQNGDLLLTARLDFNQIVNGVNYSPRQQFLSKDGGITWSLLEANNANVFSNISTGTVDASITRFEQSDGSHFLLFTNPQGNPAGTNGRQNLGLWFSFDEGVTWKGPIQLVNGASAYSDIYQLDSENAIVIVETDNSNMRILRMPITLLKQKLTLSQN
Test Summary: Sialidase substrate specificity of Leg glycosides (HPLC/capillary electrophoresis), V. cholerae sialidase
Type: biochemical
Condition Notes: pH 5.5
Endpoint: activity of V. cholerae sialidase for the compound

CC(=O)N[C@@H]1C(O)C[C@](OC2C(O)[C@H](Oc3ccc([N+](=O)[O-])cc3)OC(CO)[C@@H]2O)(C(=O)O)OC1[C@H](NC(C)=O)[C@@H](C)O (stereo partly drawn) [3-19, Leg5,7Ac2α2-3GalβpNP] ... did not show activity
CC(=O)N[C@@H]1C(O)C[C@](OCC2O[C@@H](Oc3ccc([N+](=O)[O-])cc3)C(O)C(O)[C@H]2O)(C(=O)O)OC1[C@H](NC(C)=O)[C@@H](C)O (stereo partly drawn) [3-20, Leg5,7Ac2α2-6GalβpNP] ... did not show activity
C[C@@H](O)[C@@H](N=[N+]=[N-])C1O[C@@](OCC2O[C@@H](Oc3ccc([N+](=O)[O-])cc3)C(O)C(O)[C@H]2O)(C(=O)O)CC(O)[C@H]1N=[N+]=[N-] (stereo partly drawn) [3-14, Leg5,7diN3α2-6GalβpNP] ... did not show activity
C[C@@H](O)[C@@H](N=[N+]=[N-])C1O[C@@](OC2C(O)[C@H](Oc3ccc([N+](=O)[O-])cc3)OC(CO)[C@@H]2O)(C(=O)O)CC(O)[C@H]1N=[N+]=[N-] (stereo partly drawn) [3-13, Leg5,7diN3α2-3GalβpNP] ... did not show activity
